# Assay Method Text: reversal of MRP1-mediated doxorubicin resistance, pilot screen, H69AR cells, doxorubicin co-treatment (AID 601)
# Test Settings: H69AR cells, CellTiter-Glo, 72 h; compound alone cytotoxicity; at 10 µM
I'd be grateful if you could share measured viability for these entries.
One number for each entry, in %.

O=C1c2ccccc2C(=O)N1Cc1nc2ccccc2c(=O)n1CCN1CCOCC1; 88.8

Below are 7 molecules. Give each one its viability.
1. Cc1ccc(S(=O)(=O)N2CCN(CCO)CC2)cc1-c1nnc2c3ccccc3c(C)nn12
2. CCOC(=O)c1[nH]c(C)c(C(=O)N2CCN(C(=O)c3ccco3)CC2)c1C
3. O=C(COC(=O)c1ccc(Br)o1)Nc1ccc(S(=O)(=O)N2CCCC2)cc1
4. COc1ccccc1CN1C(=O)CCC1(C)C(=O)NC1CCCCCC1 (stereo not given)
5. CCCCOc1ccc(CC(=O)NO)cc1
6. COc1ccc(C2CC(c3ccc(Cl)cc3)Nc3nc(NC(=O)c4ccco4)nn32)cc1 (stereo not given)
7. NC(=O)CSc1nnc(-c2ccc(O)cc2)n1Cc1ccco1

Key:
1. 96.2
2. 97.8
3. 95.6
4. 98.1
5. 54.2
6. 81.2
7. 98.6

Lab note: each molecule below needs its viability filled in.
1. Nc1ccc2[nH]ncc2c1
2. CCOC(=O)C1CCCN(c2c(NCc3ccco3)c(=O)c2=O)C1 (stereo not given)

Key:
1. 100
2. 94.3

* * *

Exercise: for every item that follows, state its recorded viability.
# Assay Method Text: growth suppression of beta-catenin knockout HCT116, pilot screen, human colon tumor cells (AID 823);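 note: 0% = wells killed by 20 µM Hyamine and 100% = untreated DMSO cell wells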
# Test Settings: CellTiter-Glo, 60 h, at 10 µM, stronger effect = lower value
Results filed as inconclusive are left out.
Answers are plain numbers, in %.

Below, 5 compounds whose answers are already recorded.
COc1ccc(NS(=O)(=O)c2ccc3c(c2)oc(=O)n3C)c(OC)c1; 104
CCOC(=O)C1Cn2c(nc3c(c2=O)C(C)(C)Cc2ccccc2-3)S1 (stereo not given); 90.2
O=C1CC(c2ccco2)CC(O)=C1C=NCC1CCNCC1 (stereo not given); 102
COc1ccccc1Nc1nc2ccccc2n1C; 94.7
CC(Cc1ccccc1)N/C=C1/CC(=O)NC1=O (stereo not given); 97

Hello, I would appreciate it if you could give viability for each entry below.
1. COc1ccc(OC)c(N(CC(=O)NCCSc2ccccc2)S(C)(=O)=O)c1
2. Cn1c(Cn2c(=O)sc3ccccc32)nnc1SCC(=O)NC1CCCCC1
3. O=C(NCc1cccnc1)NC1(c2ccccc2)CC1
4. Nc1nc2n(n1)C(c1ccccc1Cl)CC(c1ccc(F)cc1)N2 (stereo not given)
5. COC(=O)c1ccc(NCC(=O)c2ccccc2)cc1
6. Cc1csc2nc(CNS(=O)(=O)c3ccc4c(c3)OCCO4)cn12

Key:
[96.9, 97.6, 106, 91.6, 99.3, 91.9]

* * *

# Assay Method Text: Restrictive medium S. cerevisiae growth inhibition, OD615, pilot screen of yeast lifespan reduction project, restrictive growth control (AID 706);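 note: modified DeaD lifespan yeast strain shifted to restrictive glucose medium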
# Test Settings: OD615, 48 h, at 10 µM, stronger effect = higher value
Where growth inhibition equals or exceeds -10%, the correct label is yes (1); where it does not, the label is no (0).

Exercise: Test whether the compound `CCC(=O)N1CCc2cc(Br)cc(S(=O)(=O)NCc3ccco3)c21` records growth inhibition of -10% or higher.
Key: no (0)

* * *

# Assay Method Text: growth inhibitors of H69AR lung tumor, primary screen, human, duplicate replicates (AID 580);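 note: 100% = mean luminescence of untreated wells and 0% = no signal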
# Test Settings: H69AR lung tumor cells viability, ATP luminescence, 72 h; at 10 µM; stronger effect = lower value
Parameter: viability (%)
Give bare numbers, in %.

In the examples that follow, each entry is paired with its recorded viability.
CCOC(=O)N1CCN(C(=O)c2ccc3c(SCC(=O)O)c4c(nc3c2)CCCC4)CC1; 100
O=C(O)CCCCCCC1C(=O)NC(=O)N1CCC(O)C1CCCCC1 (configuration not stated); 99.3
O=c1sc(Nc2ccccc2)nc2ccsc12; 75.9

Your task in this section: give viability for each listed record.
1. Nc1nnc(-c2ccccc2)c(-c2ccccc2)n1
2. CCN(CC)CCN1C(=O)C(=O)/C(=C(/O)c2c(C)[nH]c(C(=O)OC)c2C)C1c1ccccc1OC (configuration not stated)
3. Nc1ccc(S(=O)(=O)NC(=O)c2ccccc2)cc1
4. COc1ccc(C)cc1-n1nnnc1SCC(=O)Nc1cc(C)on1

Key:
[99.2, 68.3, 98.5, 90.6]

* * *

# Assay Method Text: HUVEC growth inhibition – cell-based, human, primary screen (AID 575);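 note: 100% = median of untreated cell wells with 0.1% DMSO on each plate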
# Test Settings: HUVEC proliferation, CellTiter-Glo luminescence, 72 h; at 10 µM; stronger effect = lower value
Exercise: for every item that follows, state its recorded viability.
Numbers only, in %.

CC(C)CCNC(=O)NC(=O)CSc1nnc(COc2ccccc2Cl)o1; 81
O=C1CCC(=O)N1OCCCOc1ccc(Br)cc1Cl; 90
CCOC(=O)[C@H](CCc1ccccc1)N[C@@H](C)C(=O)N1CCC[C@H]1C(=O)O; 103
COc1ccc(OC)c(C(=O)CSc2nnc(-c3ccc(OC)c(OC)c3)o2)c1; 75.9
N#Cc1ccc(CSc2nnc(-c3cnccn3)o2)cc1; 93.8
Cc1nc2nc(Cc3ccccc3)[nH]n2c(=O)c1Cc1ccccc1; 96.6

Would you mind listing viability for each of the following compounds?
1. O=C(CSc1nnc(CNC(=O)c2cccs2)o1)NCCc1ccccc1
2. CCCC(=O)Nc1ccc(NC(=O)C2CC2)cn1
3. Cc1cc(Cl)c(S(=O)(=O)N2CCN(c3ccc(F)cc3)CC2)cc1OCC(N)=O
4. O=C(CCC(=O)OCCCC(F)(F)C(F)(F)F)NC1CCCCC1
5. CCCCn1c(CN2CCN(c3cccc(Cl)c3)CC2)nc2c1c(=O)n(C)c(=O)n2C

Key:
1: 92.4; 2: 105; 3: 97.1; 4: 112; 5: 66.9

* * *

Provide the reported viability of each item.
# Assay Method Text: growth inhibitors of H69AR lung tumor, primary screen, human, duplicate replicates (AID 580);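 note: 100% = mean luminescence of untreated wells and 0% = no signal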
# Test Settings: H69AR lung tumor cells viability, ATP luminescence, 72 h; at 10 µM; stronger effect = lower value
Answers are plain numbers, in %.

These recorded examples may help you get a feel for the data.
O=C(Cn1cnc2c(nnn2Cc2ccccc2)c1=O)c1ccc(Cl)cc1; 97.1
CN(C)S(=O)(=O)c1ccc2c(c1)C(CC(=O)O)OC2=O (stereo unspecified); 96.1
Cc1ccc(-n2nc(C(=O)N3CCN(C)CC3)c3c4ccccc4n(C)c3c2=O)cc1; 96.8

Quick one: give me viability for each item below, same order please.
1. Cc1ccccc1-n1c(=O)c2ccccc2n2nnnc12
2. Cc1ccc(SCc2[nH]nc3c2C(c2ccc(C)o2)C(C#N)=C(N)O3)cc1 (stereo unspecified)
3. Nc1nc(F)nc2c1ncn2[C@@H]1O[C@H](CO)[C@@H](O)[C@@H]1O
4. Cc1ccc(C)n1NC(=O)c1ccco1
5. COc1cc2[nH]c(=O)n(CCC(=O)N3CCc4ccccc4C3)c(=O)c2cc1OC
6. Nc1sccc1C(=O)c1ccccc1

Key:
1. 93
2. 76.8
3. 103
4. 94.8
5. 92.4
6. 88.5

Please supply viability for each of the following items, keeping them in order.
1. CN1CCN(CC(=O)N2c3ccccc3C(=O)Nc3cccnc32)CC1
2. CCS(=O)(=O)CCn1c([N+](=O)[O-])cnc1C

Key:
1: 96.1; 2: 100

* * *

# Assay Method Text: Restrictive medium S. cerevisiae growth inhibition, OD615, pilot screen of yeast lifespan reduction project, restrictive growth control (AID 706);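 note: modified DeaD lifespan yeast strain shifted to restrictive glucose medium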
# Test Settings: OD615, 48 h, at 10 µM, stronger effect = higher value
Parameter: growth inhibition (%)
Give bare numbers, in %.

Look over these answered cases.
O=C(NC1CCCCC1)C1CCN(S(=O)(=O)c2cccc3cccnc23)CC1; -0.575
COc1ccc(C(=O)NCC23C=CC(O2)C2C(=O)N(Cc4ccccc4)C(=O)C23)cc1 (centres undefined); 13.4

For every item in the list below, what is its measured growth inhibition?
1. CC(=O)Nc1cccc(N2C(=O)CC(Cc3ccccc3)C2=O)c1 (centres undefined)
2. Cn1c(=O)c2c(nc(NCCc3ccccc3)n2Cc2ccc(F)cc2)n(C)c1=O
3. O=C(C1CC1)N1CCc2cc(Br)cc(S(=O)(=O)NCCN3CCOCC3)c21
4. O=C(CSc1nnc(-c2cccnc2)n1Cc1ccco1)c1ccc(Br)cc1
5. CCOc1ccc(-n2c(SCC(=O)Nc3cc(C)on3)nc3c([nH]c4ccccc43)c2=O)cc1

Key:
[-3.32, -8.86, -6.43, 32.4, -15.4]

* * *

# Assay Method Text: inhibitors of the yeast RAM network, pilot screen, dse1pr::URA3 reporter, 5-FOA selection (AID 869);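 note: 0% = DMSO wells with no growth and 100% = 10 µM 1-NA-PP1 with full growth; RAM network block rescues cells from 5-FOA so hits raise OD615 growth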
# Test Settings: S. cerevisiae dse1pr::URA3 5-FOA growth, OD615, 2 d; at 10 µM; stronger effect = higher value; strain carries analog-sensitive mutant Cbk1 kinase
Parameter: inhibition (%)
One number for each entry, in %.

Sample answers from the record:
O=C(Cn1cc2c(n1)CCCCC2)NC1CCN(Cc2ccccc2)CC1; 2.21
COc1ccc(CN2CCNC(=O)C2CC(=O)O)cc1OC (stereo unspecified); 0.38
CC(Sc1nc2c(c(=O)n(C)c(=O)n2C)n1Cc1cc2c(cc1Cl)OCO2)C(=O)O (stereo unspecified); 1.83

Count: 8. Required value per item: inhibition.
1. COc1ccc(-n2c(Cc3cc(=O)[nH]c(=O)[nH]3)nnc2SCc2ccccc2)cc1
2. CC(=O)NC(C)c1nc2ccccc2n1Cc1ccccc1F (stereo unspecified)
3. OCCNc1nc(Nc2ccccc2)nc(Nc2ccccc2)n1
4. O=C(C1CCCN(S(=O)(=O)c2ccc(F)cc2)C1)N(Cc1cccs1)C1CC1 (stereo unspecified)
5. COc1ccc(CNC(=O)c2ccc(NC(=O)C3CCCO3)cc2)cc1 (stereo unspecified)
6. Cc1cccc2sc(NC(=O)c3ccc(Cl)s3)nc12
7. Cc1cc(C)n2c(SCC#N)nnc2n1
8. COc1cc(-c2nc3cnccn3c2Nc2ccc3c(c2)OCCO3)ccc1O

Key:
1: 0.455; 2: 3.67; 3: -0.245; 4: 2.02; 5: 2.87; 6: 2.64; 7: 2.84; 8: 2.98

Batch lookup, inhibition per entry.
1. Cc1cc(Nc2ccc(F)cc2F)n2nc(C)nc2n1
2. CCC(C)NC(=O)c1ccc(CS(=O)(=O)c2ccc(OC)cc2)o1 (stereo unspecified)
3. CCOC(=O)C1(c2csc(N)n2)COC(=O)C1 (stereo unspecified)
4. CC(=O)c1ccc(NC(=O)CSc2nnc(NC(=O)CN3CCOCC3)s2)cc1
5. COc1ccc(NC(=O)C(c2ccccc2)N(C)C(=O)c2cnccn2)cc1 (stereo unspecified)

Key:
[0.33, 0.73, 2.44, 2.19, 0.88]

Could you report inhibition for every entry in the following list?
1. O=C(C1CC(c2ccc(F)cc2)=NO1)N1CCN(Cc2ccccc2)CC1 (stereo unspecified)
2. COc1cc(=O)[nH]c(=O)n1C(=O)Cc1ccccc1
3. CCNc1cc2oc(=O)c(CN3CCOCC3)c(C)c2cc1C
4. CCN1CCN(CCNC(=O)c2ccc(CS(=O)(=O)c3c(Cl)cccc3Cl)o2)CC1
5. CCCSc1nc2c(cnn2-c2ccc(F)cc2)c(=O)[nH]1
6. COc1ccc(-c2nnc(NC(=O)c3ccccc3C)o2)cc1
7. C=C(C)Cn1c(CCNC(=O)C(C)(C)C)nc2ccccc21

Key:
1.8
-0.145
2.04
2.98
0.82
1.86
2.33

Would you be so kind as to report inhibition for each listed record?
1. CCSc1nnc(Cn2c(=O)sc3ccccc32)n1C
2. CCOC(=O)N1CCN(C(=O)CS(=O)(=O)c2cn(Cc3ccccc3C)c3ccccc23)CC1

Key:
1: 0.71; 2: 2.09
